# assay system: T1, SNAP-GAL1R K197^5.35A (human, UniProt P47211 1-349, K197^5.35A, Lumi4-Tb on the SNAP tag)
# T1 construct: also called K197A; source: HEK293, transfected, on cells; not shown: SNAP tag, N-terminal, kept
# T1 sequence (looked up): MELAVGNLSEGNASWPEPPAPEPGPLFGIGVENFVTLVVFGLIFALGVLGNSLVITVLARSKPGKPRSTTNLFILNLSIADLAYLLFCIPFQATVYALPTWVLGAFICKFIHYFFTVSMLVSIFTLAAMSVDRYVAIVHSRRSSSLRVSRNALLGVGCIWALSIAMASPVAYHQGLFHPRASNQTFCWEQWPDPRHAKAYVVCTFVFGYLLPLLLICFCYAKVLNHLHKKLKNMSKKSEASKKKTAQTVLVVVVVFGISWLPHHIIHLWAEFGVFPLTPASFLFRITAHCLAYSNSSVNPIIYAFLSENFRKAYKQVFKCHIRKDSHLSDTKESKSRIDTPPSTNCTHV
# assay procedure: AlphaScreen or HTRF; saturation binding: HEK293 cells transfected with SNAP-tagged receptor (WT or mutant) and labelled with SNAP-Lumi4-Tb, incubated with increasing concentrations of galanin-A2 in the presence or absence of 100 uM unlabeled galanin, 1 h at room temperature; HTRF ratio 665 nm/620 nm
# condition context: one partner purified
recorded endpoint: pKd
Kindly note that pKd refers to -log10 of the concentration in mol/L and answer with the value alone.

Annotate the binder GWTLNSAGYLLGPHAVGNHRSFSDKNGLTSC (dye A2 on the additional C-terminal cysteine, numbers count on: the mature protein; additional cysteine at the C-terminal end of the peptide, carries the dye A2; source: synthetic peptide (synthesized by Vazyme, China)) with its measured pKd.
6.80
